biological target: T1, human PCSK9 recombinant protein (human PCSK9 extracellular region protein) (human, UniProt Q8NBP7 31-692, biotin label (biotin-xx-NHS, sites not stated) in the ELISA and flow cytometry assays); assay: ForteBio instrument (BLI)
T1 construct: extracellular domain; The tag from the vector pSec CAGA2 ECD is not described; PCSK9 is a secreted protein; also called hPCSK9; HPCSK9
T1 sequence (Q8NBP7 31-692 limits assumed): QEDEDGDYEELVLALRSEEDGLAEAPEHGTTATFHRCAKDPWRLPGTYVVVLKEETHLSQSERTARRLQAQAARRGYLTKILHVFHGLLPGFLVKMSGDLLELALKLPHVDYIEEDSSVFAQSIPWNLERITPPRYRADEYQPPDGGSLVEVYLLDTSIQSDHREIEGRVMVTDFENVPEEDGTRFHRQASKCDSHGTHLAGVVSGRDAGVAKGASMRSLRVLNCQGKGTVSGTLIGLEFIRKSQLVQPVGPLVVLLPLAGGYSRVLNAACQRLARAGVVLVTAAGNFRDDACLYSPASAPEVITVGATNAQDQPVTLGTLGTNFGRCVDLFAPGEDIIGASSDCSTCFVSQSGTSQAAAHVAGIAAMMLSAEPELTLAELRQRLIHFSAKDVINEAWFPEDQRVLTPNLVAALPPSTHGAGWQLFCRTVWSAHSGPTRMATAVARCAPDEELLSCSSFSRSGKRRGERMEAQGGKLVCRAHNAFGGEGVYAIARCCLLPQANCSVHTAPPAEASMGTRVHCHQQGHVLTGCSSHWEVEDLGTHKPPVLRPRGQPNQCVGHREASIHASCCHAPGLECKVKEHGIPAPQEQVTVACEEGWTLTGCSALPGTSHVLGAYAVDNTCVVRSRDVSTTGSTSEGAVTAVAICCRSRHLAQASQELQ
So I've got a bunch of binders here, and I need their pKd values.
One number for each entry, as −log10 of the molar value.

| binder | readout-number |
| --- | --- |
| 2B12 murine-derived anti-PCSK9 monoclonal antibody (antibody, V domains shown, Mouse hybridoma antibody) VH: DVQLQESGPGLVKPSQSLSLTCSVTGFSITSDYAWNWIRQFPGNKLEWMGYISYSGTTNYNPSLKSRISITRDTSKNQFFLHLNSVITEDTATYYCARREGHYSWFPYWGQGTLVTVSA VL: DIVLTQSPASLAVSLGQRATISCRASESVEYYGTSLMHWYQHKPGQTPKLLIYSGSNVESGVPARFSGSGSGTDFSLNIHPVEEDDIAMYFCQQSREVPSTFGGGTKLEIK | 9.31 |

For every listed record, write down its pKd.
1. 1A5 murine-derived anti-PCSK9 monoclonal antibody (antibody, V domains shown, Mouse hybridoma antibody) VH: QVQLKQSGPSLVQPSQSLSITCTVSGFSLTSYGVHWVRQSPGKGLEWLGVIWRGGSTDYNAAFMSRLSITKDNSKSQVFFKMNSLQADDTAIYYCANHRDWGQGTLVTVSA VL: DIQMTQSPSSLSASLGDKVTITCKASQDINKYIDWYQHKPGKGPRLLIHYTSTLQPGIPSRFSGSGSGRDYSFSISNLEPEDIATYYCVQYDDLWTFGGGTKLEIK
2. 3G12 murine-derived anti-PCSK9 monoclonal antibody (antibody, V domains shown, Mouse hybridoma antibody) VH: QVQLKQSGPSLLQPSQSLSITCTVSGFSLTSYGIHWVRQSPGKGLEWLGVIWRGGITDYNAPFMSRLNITKDNSKNQVFFKMNSLQVDDTAIYYCANHRDWGQGTLVTVSA VL: DIQMTQSPSSLSASLGGKVTITCKASQDINKYIDWYQHKPGKSPRLLIHYASTLQPGIPSRFSGSGSGRDYSFSISNLEPEDIATYYCLQYDDLWTFGGGTKLEIK
3. 1B11 murine-derived anti-PCSK9 monoclonal antibody (antibody, V domains shown, Mouse hybridoma antibody) VH: QVQLQQSGAVLVRPGTSIKVSCKASGYAFTNYLIEWIKKRPGQGLEWIGMINPGSGDTNFNEKFKAKATLTADKSSTTAYMQLNSLTFDDSAVYFCARSSQLGLPYWGQGTLVTVSA VL: DIQMTQSPASLSASVGETVTITCRASENIYSYLAWYQQKQENSPQLLVYNAYTLADGVPSRFSGSGSGTQFSLKIISLQPEDFGNYYCQHHYRTPPTFGGGTKLEIK

9.04
9.55
8.33

Reference source: patent US20190233540A1
